target: human recombinant serotonin (5-Hydroxytryptamine) 5-HT2C receptor (Homo sapiens, UniProt P28335); construct: expressed in transfected cells; host or cells: CHO-K1 cells; assay: Serotonin 5-HT2C radioligand binding ([3H]Mesulergine); conditions: compound at 1 μM; CHO-K1 cells; read-out: Serotonin (1 μM) 5-HT2C, percent inhibition of specific binding
Sequence (P28335 33-458): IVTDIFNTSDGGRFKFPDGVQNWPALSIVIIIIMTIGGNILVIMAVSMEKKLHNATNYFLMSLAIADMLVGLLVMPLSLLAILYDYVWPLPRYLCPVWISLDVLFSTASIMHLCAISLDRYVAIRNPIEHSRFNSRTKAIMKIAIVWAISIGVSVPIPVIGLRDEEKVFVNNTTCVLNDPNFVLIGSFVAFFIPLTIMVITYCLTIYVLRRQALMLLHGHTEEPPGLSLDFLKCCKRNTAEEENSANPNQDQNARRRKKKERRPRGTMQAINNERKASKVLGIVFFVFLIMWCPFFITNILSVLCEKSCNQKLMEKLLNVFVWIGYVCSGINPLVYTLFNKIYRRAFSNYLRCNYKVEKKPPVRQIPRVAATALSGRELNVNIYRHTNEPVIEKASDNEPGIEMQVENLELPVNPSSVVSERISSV
QUANTITY: inhibition at 1 µM (%)
Write the number in % without appending the unit.

# COMPOUND, QUANTITY, VALUE_OBSERVED
rows = [
    ("CCNC(=O)CCCn1c2c(c3cc(C)ccc31)CN(C)CC2", "inhibition at 1 µM", 45),
    ("Cc1ccc2c(c1)c1c(n2CCNC(=O)C2CCCNC2)CCN(C)C1 (centres unmarked)", "inhibition at 1 µM", 29),
    ("Cc1ccc2c(c1)c1c(n2CCNC(=O)C2CCCC2)CCN(C)C1", "inhibition at 1 µM", 40),
    ("CN1CCc2c(c3cc(Cl)ccc3n2CCO)C1", "inhibition at 1 µM", 84),
]

Next compound, please.
Prompt: Could you tell me which inhibition at 1 µM is on file for CN1CCc2c(c3cc(Cl)ccc3n2CC(=O)N(C)C)C1 ?
Completion: 37

---

biological target: human recombinant serotonin (5-Hydroxytryptamine) 5-HT6 receptor (Homo sapiens); construct: expressed in transfected cells; host or cells: human HeLa cells; test: Serotonin 5-HT6 radioligand binding ([3H]LSD); details: compound at 1 μM; HeLa cells; read-out: Serotonin (1 μM) 5-HT6, percent inhibition of specific binding
Sequence (P50406 whole entry): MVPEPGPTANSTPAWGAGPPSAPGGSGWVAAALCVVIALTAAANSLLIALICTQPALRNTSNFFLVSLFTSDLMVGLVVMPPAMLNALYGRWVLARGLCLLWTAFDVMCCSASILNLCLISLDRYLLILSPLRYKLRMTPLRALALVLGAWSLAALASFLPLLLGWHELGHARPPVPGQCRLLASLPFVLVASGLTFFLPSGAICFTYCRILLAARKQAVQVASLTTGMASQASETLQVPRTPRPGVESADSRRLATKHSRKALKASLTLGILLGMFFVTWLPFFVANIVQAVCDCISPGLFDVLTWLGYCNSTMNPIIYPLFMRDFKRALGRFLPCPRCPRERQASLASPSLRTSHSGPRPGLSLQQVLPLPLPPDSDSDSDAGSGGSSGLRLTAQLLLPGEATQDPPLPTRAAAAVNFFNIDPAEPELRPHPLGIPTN
Use 20% as the dividing line for inhibition at 1 µM, with the line itself on the T side and lower values as F.

Consider the worked cases shown below.
# COMPOUND, LABEL_CLASS
rows = [
    ("Cc1ccc2c(c1)c1c(n2CCC(=O)NC2CCCCC2)CCN(C)C1 [Compound 3]", "F"),
    ("Cc1ccc2c(c1)c1c(n2CCN)CCN(C)C1 [CD62]", "F"),
    ("Cc1ccc2c(c1)c1c(n2CC(N)=O)CCN(C)C1 [Compound 64]", "F"),
    ("CN1CCc2c(c3cc(Cl)ccc3n2CC(=O)OCC2CCCCC2)C1 [Compound 14]", "T"),
]

Now look at this one.
Prompt: # check: inhibition at 1 µM of Cc1ccc2c(c1)c1c(n2CCC(=O)NC(C)C)CCN(C)C1 [Compound 53] is greater than or equal to 20%
Completion: T

---

molecular target: human recombinant adrenergic α2B receptor (Homo sapiens); construct: expressed in transfected cells; host or cells: CHO-K1 cells; assay: Adrenergic α2B radioligand binding ([3H]Rauwolscine); conditions: compound at 1 μM; CHO-K1 cells; read-out: Adrenergic (1 μM) α2B, percent inhibition of specific binding
Sequence (P18089 whole entry): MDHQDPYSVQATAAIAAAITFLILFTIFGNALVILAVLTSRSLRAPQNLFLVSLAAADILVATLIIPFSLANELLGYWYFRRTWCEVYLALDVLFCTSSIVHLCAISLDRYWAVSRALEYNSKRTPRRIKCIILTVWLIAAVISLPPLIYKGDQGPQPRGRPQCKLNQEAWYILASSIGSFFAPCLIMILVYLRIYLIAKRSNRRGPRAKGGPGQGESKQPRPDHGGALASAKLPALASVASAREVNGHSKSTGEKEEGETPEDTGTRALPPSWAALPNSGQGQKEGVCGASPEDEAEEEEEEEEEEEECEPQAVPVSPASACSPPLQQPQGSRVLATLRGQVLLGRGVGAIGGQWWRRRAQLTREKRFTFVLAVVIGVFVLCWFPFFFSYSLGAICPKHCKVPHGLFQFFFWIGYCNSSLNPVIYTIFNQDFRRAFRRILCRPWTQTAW
QUANTITY: inhibition at 1 µM (%)
Write the number in % without appending the unit.

# SAMPLE_SMILES, ASSAY_SYSTEM, U, inhibition at 1 µM
rows = [
    ("CN1CCc2c(c3cc(Cl)ccc3n2CC(=O)OC2CCCC2)C1", "human recombinant adrenergic α2B receptor (Homo sapiens)", "%", 95),
    ("Cc1ccc2c(c1)c1c(n2CCC(=O)NCC2CCCCC2)CCN(C)C1", "human recombinant adrenergic α2B receptor (Homo sapiens)", "%", 104),
    ("CN1CCc2c(c3cc(Cl)ccc3n2CC(=O)O)C1", "human recombinant adrenergic α2B receptor (Homo sapiens)", "%", 35),
    ("Cc1ccc2c(c1)c1c(n2CC(=O)NC(C)C)CCN(C)C1", "human recombinant adrenergic α2B receptor (Homo sapiens)", "%", 18),
    ("Cc1ccc2c(c1)c1c(n2CCNC(=O)c2ccncc2)CCN(C)C1", "human recombinant adrenergic α2B receptor (Homo sapiens)", "%", 70),
    ("CN1CCc2c(c3cc(Cl)ccc3n2CCC(N)=O)C1", "human recombinant adrenergic α2B receptor (Homo sapiens)", "%", 72),
    ("CN1CCc2c(c3cc(Cl)ccc3n2CCCO)C1", "human recombinant adrenergic α2B receptor (Homo sapiens)", "%", 103),
    ("Cc1ccc2c(c1)c1c(n2CCNC(=O)OCC(Cl)(Cl)Cl)CCN(C)C1", "human recombinant adrenergic α2B receptor (Homo sapiens)", "%", 102),
]

Prompt: Could you tell me which inhibition at 1 µM is on file for CCNC(=O)Cn1c2c(c3cc(C)ccc31)CN(C)CC2 ?
Completion: 58

Prompt: Could you tell me which inhibition at 1 µM is on file for CN1CCc2c(c3cc(Cl)ccc3n2CCC(=O)N(C)C)C1 ?
Completion: 76

---

Target: human recombinant adrenergic α2A receptor (Homo sapiens)
Construct: expressed in transfected cells; host or cells: insect Sf9 cells
Sequence (P08913 1-465): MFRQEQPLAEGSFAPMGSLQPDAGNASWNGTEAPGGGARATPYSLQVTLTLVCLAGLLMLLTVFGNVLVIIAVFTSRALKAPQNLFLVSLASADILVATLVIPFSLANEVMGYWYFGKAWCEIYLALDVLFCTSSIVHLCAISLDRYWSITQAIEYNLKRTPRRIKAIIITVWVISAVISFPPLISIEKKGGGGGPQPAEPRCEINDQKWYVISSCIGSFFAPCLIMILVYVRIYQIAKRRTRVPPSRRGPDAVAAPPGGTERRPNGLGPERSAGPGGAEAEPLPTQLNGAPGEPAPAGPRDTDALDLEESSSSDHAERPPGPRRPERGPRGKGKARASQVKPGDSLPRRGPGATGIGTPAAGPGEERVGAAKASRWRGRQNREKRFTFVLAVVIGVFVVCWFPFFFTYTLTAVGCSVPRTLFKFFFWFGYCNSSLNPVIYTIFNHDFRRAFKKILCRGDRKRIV
Test: Adrenergic α2A radioligand binding ([3H]MK-912)
Conditions: compound at 1 μM; insect Sf9 cells; read-out: Adrenergic (1 μM) α2A, percent inhibition of specific binding
Use 40% as the dividing line for inhibition at 1 µM, with the line itself on the true side and lower values as false.

# SAMPLE_SMILES, LABEL_CLASS
rows = [
    ("CN1CCc2c(c3cc(Cl)ccc3n2CC(=O)OC(C)(C)C)C1", "false"),
]

Prompt: # check: inhibition at 1 µM of CN1CCc2c(c3cc(Cl)ccc3n2CCC(=O)OCc2ccccc2)C1 is greater than or equal to 40%
Completion: true

Prompt: # check: inhibition at 1 µM of Cc1ccc2c(c1)c1c(n2CCNC(=O)OCC(Cl)(Cl)Cl)CCN(C)C1 is greater than or equal to 40%
Completion: true

Prompt: # check: inhibition at 1 µM of CN1CCc2c(c3cc(Cl)ccc3n2CCC(=O)NC2CCCC2)C1 is greater than or equal to 40%
Completion: false

Prompt: # check: inhibition at 1 µM of CN1CCc2c(c3cc(Cl)ccc3n2CC(=O)OCC2CCCCC2)C1 is greater than or equal to 40%
Completion: true

---

biological target: human recombinant serotonin (5-Hydroxytryptamine) 5-HT2C receptor (Homo sapiens); construct: expressed in transfected cells; host or cells: CHO-K1 cells; experiment: Serotonin 5-HT2C radioligand binding ([3H]Mesulergine); details: compound at 1 μM; CHO-K1 cells; read-out: Serotonin (1 μM) 5-HT2C, percent inhibition of specific binding
Each entry below lists one item and its recorded inhibition at 1 µM value.
Write the number in % without appending the unit.

Prompt: # value lookup — system human recombinant serotonin (5-Hydroxytryptamine) 5-HT2C receptor (Homo sapiens), readout inhibition at 1 µM, item Cc1ccc2c(c1)c1c(n2CCNC(=O)C2CCNCC2)CCN(C)C1 [Compound 65]
Completion: 24

Prompt: # value lookup — system human recombinant serotonin (5-Hydroxytryptamine) 5-HT2C receptor (Homo sapiens), readout inhibition at 1 µM, item Cc1ccc2c(c1)c1c(n2CCC(=O)NC(C)(C)C)CCN(C)C1 [Compound 28]
Completion: 35

Prompt: # value lookup — system human recombinant serotonin (5-Hydroxytryptamine) 5-HT2C receptor (Homo sapiens), readout inhibition at 1 µM, item Cc1ccc2c(c1)c1c(n2CC(=O)NC(C)C)CCN(C)C1 [Compound 23]
Completion: 37

Prompt: # value lookup — system human recombinant serotonin (5-Hydroxytryptamine) 5-HT2C receptor (Homo sapiens), readout inhibition at 1 µM, item Cc1ccc2c(c1)c1c(n2CCC#N)CCN(C)C1 [CD92]
Completion: 61

Prompt: # value lookup — system human recombinant serotonin (5-Hydroxytryptamine) 5-HT2C receptor (Homo sapiens), readout inhibition at 1 µM, item CC(C)OC(=O)CCn1c2c(c3cc(Cl)ccc31)CN(C)CC2 [Compound 17]
Completion: 91

Prompt: # value lookup — system human recombinant serotonin (5-Hydroxytryptamine) 5-HT2C receptor (Homo sapiens), readout inhibition at 1 µM, item CN1CCc2c(c3cc(Cl)ccc3n2CC(=O)OCc2ccccc2)C1 [Compound 13]
Completion: 91

Prompt: # value lookup — system human recombinant serotonin (5-Hydroxytryptamine) 5-HT2C receptor (Homo sapiens), readout inhibition at 1 µM, item CCOC(=O)CCCn1c2c(c3cc(C)ccc31)CN(C)CC2 [Compound 5]
Completion: 96

Prompt: # value lookup — system human recombinant serotonin (5-Hydroxytryptamine) 5-HT2C receptor (Homo sapiens), readout inhibition at 1 µM, item Cc1ccc2c(c1)c1c(n2CCNC(=O)c2ccncc2)CCN(C)C1 [Compound 50]
Completion: 35

Prompt: # value lookup — system human recombinant serotonin (5-Hydroxytryptamine) 5-HT2C receptor (Homo sapiens), readout inhibition at 1 µM, item Cc1ccc2c(c1)c1c(n2C2CCCCC2O)CCN(C)C1 (stereo not drawn) [Compound 73]
Completion: 52

Data provenance: patent US9115137B2
